Tested on: Rhizoctonia solani
Assay: In vitro fungicidal activity against Rhizoctonia solani (mycelial growth inhibition rating)
Type: cell-based
Set-up: key: 0: None; 3: slight; 5: moderate; 7: severe; 9: complete
Conditions: 25 ppm; 24-cell-well plates; 3-7 days of incubation
property: Rating (inhibition of mycelial growth)
Please give only the number in your answer, with no unit.

Bench note: what Rating (inhibition of mycelial growth) did CCN(CC)c1c(-c2cc(F)ccc2C(F)(F)F)c(Cl)nc2ncnn12 [Compound I-4] show? 7

Consider the compound shown here: Nc1c(-c2cc(F)ccc2C(F)(F)F)c(Cl)nc2ncnn12 [Compound I-7] What is its recorded Rating (inhibition of mycelial growth)? 0

State the recorded Rating (inhibition of mycelial growth) for this entry: Fc1ccc(C(F)(F)F)c(-c2c(Cl)nc3ncnn3c2NC2CC3CCC2C3)c1 (centres unmarked) [Compound I-3] 5

Give the measured Rating (inhibition of mycelial growth) of CC1CCN(c2c(-c3cc(F)ccc3C(F)(F)F)c(Cl)nc3ncnn23)CC1 [Example 5] . 7

Rating (inhibition of mycelial growth) for Fc1ccc(C(F)(F)F)c(-c2c(Cl)nc3ncnn3c2NCC(F)(F)F)c1 [Compound I-6] ? 7

Quick one: Rating (inhibition of mycelial growth) for CC(C)Nc1c(-c2cc(F)ccc2C(F)(F)F)c(Cl)nc2ncnn12 [Compound I-1] ? 7

Any idea what its Rating (inhibition of mycelial growth) is? The compound is CCC(C)Nc1c(-c2cc(F)ccc2C(F)(F)F)c(Cl)nc2ncnn12 (centres unmarked) [Compound I-5] 7

May I ask what Rating (inhibition of mycelial growth) has been recorded for Fc1ccc(C(F)(F)F)c(-c2c(Cl)nc3ncnn3c2NC2CCCC2)c1 [Compound I-2] ? 7

###

System: Alternaria solani
Test: MIC serial dilution test, Alternaria solani
Format: cell-based
Settings: V8 juice medium, 6-12 days at 18-25° C., visual
Please note: MIC (Minimum Inhibitory Concentration) ALTEBO exactly at 3 µg/mL is 0. Only values below 3 µg/mL get 1.

# TODO verify MIC (Minimum Inhibitory Concentration) ALTEBO < 3 µg/mL strictly for this compound: CCN(CC)c1c(-c2cc(F)ccc2C(F)(F)F)c(Cl)nc2ncnn12 [Compound I-4] 0

hey, is MIC (Minimum Inhibitory Concentration) ALTEBO for Fc1ccc(C(F)(F)F)c(-c2c(Cl)nc3ncnn3c2NC2CC3CCC2C3)c1 (stereo not drawn) [Compound I-3] lower than 3 µg/mL or not? 1

Consider CCC(C)Nc1c(-c2cc(F)ccc2C(F)(F)F)c(Cl)nc2ncnn12 (stereo not drawn) [Compound I-5] . Does its MIC (Minimum Inhibitory Concentration) ALTEBO lie strictly below 3 µg/mL? 0

Lab note: MIC (Minimum Inhibitory Concentration) ALTEBO threshold 3 µg/mL. Does this compound come in strictly under it? CC1CCN(c2c(-c3cc(F)ccc3C(F)(F)F)c(Cl)nc3ncnn23)CC1 [Example 5] 1

Regarding Fc1ccc(C(F)(F)F)c(-c2c(Cl)nc3ncnn3c2NC2CCCC2)c1 [Compound I-2] , kindly confirm whether its MIC (Minimum Inhibitory Concentration) ALTEBO is beneath 3 µg/mL. 0

For this compound, is MIC (Minimum Inhibitory Concentration) ALTEBO lower than 3 µg/mL? CC(C)Nc1c(-c2cc(F)ccc2C(F)(F)F)c(Cl)nc2ncnn12 [Compound I-1] 0
